The entries below are paired with their reported IC50.
Tested on: 454973-116-R2-J3-PDC spheroids, viability, % test/control;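 also: spheroids exposed to compounds for seven days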
PROTOCOL DESCRIPTION: Anticancer human tumor 454973-116-R2-J3-PDC patient-derived pancreatic carcinoma cell line growth inhibition [GQUAD]
RUN CONDITIONS: curve of first compound; second compound 1 µM; spheroids with HUVEC and MSC
READOUT: IC50 (nM)

[
  {
    "COMPOUND": "CC1COCCN1c1cc(-c2ccnn2C)c2ccnc(-c3ccn[nH]3)c2n1 (stereo not given) + Cc1[nH]c2ccc(F)cc2c1-c1nc2c3cccnc3c3ncccc3c2[nH]1",
    "LIMIT SIGN": "=",
    "DATA VALUE": 158
  },
  {
    "COMPOUND": "COc1cc(C2c3cc4c(cc3C(OC3OC5COC(C)OC5C(O)C3O)C3COC(=O)C23)OCO4)cc(OC)c1O (stereo not given) + CN(C)c1ccc(Nc2c3ccc(NC(=O)CCN4CCCC4)cc3nc3cc(NC(=O)CCN4CCCC4)ccc23)cc1",
    "LIMIT SIGN": "=",
    "DATA VALUE": 790
  },
  {
    "COMPOUND": "CC(=O)O[C@H]1C(=O)[C@@]2(C)[C@H]([C@H](OC(=O)c3ccccc3)[C@]3(O)C[C@H](OC(=O)[C@H](O)[C@@H](NC(=O)c4ccccc4)c4ccccc4)C(C)=C1C3(C)C)[C@]1(OC(C)=O)CO[C@@H]1C[C@@H]2O + Cc1[nH]c2ccc(F)cc2c1-c1nc2c3cccnc3c3ncccc3c2[nH]1",
    "LIMIT SIGN": "<",
    "DATA VALUE": 31.6
  },
  {
    "COMPOUND": "O=C(NO)c1cnc(N2CCN(S(=O)(=O)c3ccc4ccccc4c3)CC2)nc1 + Cc1cnc(CNC(=O)c2c(=O)c3ccc(N4CCCN(C)CC4)nc3n3c2sc2ccccc23)cn1",
    "LIMIT SIGN": "=",
    "DATA VALUE": 140
  },
  {
    "COMPOUND": "COc1ccc([C@@H](O)c2cc(-c3ncnc4cc(N5CCOCC5)ccc34)c(F)cc2Cl)nn1 + Cc1[nH]c2ccc(F)cc2c1-c1nc2c3cccnc3c3ncccc3c2[nH]1",
    "LIMIT SIGN": "=",
    "DATA VALUE": 9540
  },
  {
    "COMPOUND": "Cc1[nH]c2ccccc2c1CCNCc1ccc(/C=C/C(=O)NO)cc1 + Cc1cnc(CNC(=O)c2c(=O)c3ccc(N4CCCN(C)CC4)nc3n3c2sc2ccccc23)cn1",
    "LIMIT SIGN": "=",
    "DATA VALUE": 41.6
  },
  {
    "COMPOUND": "CC1COCCN1c1cc(-c2ccnn2C)c2ccnc(-c3ccn[nH]3)c2n1 (stereo not given) + Cc1cnc(CNC(=O)c2c(=O)c3ccc(N4CCCN(C)CC4)nc3n3c2sc2ccccc23)cn1",
    "LIMIT SIGN": "<",
    "DATA VALUE": 31.6
  },
  {
    "COMPOUND": "CC[C@@]1(O)C(=O)OCc2c1cc1n(c2=O)Cc2cc3c(CN(C)C)c(O)ccc3nc2-1 + Cc1[nH]c2ccc(F)cc2c1-c1nc2c3cccnc3c3ncccc3c2[nH]1",
    "LIMIT SIGN": "=",
    "DATA VALUE": 44.3
  },
  {
    "COMPOUND": "COc1ncnc(C2CC2)c1-c1ncc2cnn(Cc3ccc(-c4nc(C(F)(F)F)cn4C(C)C)cc3)c2n1 + CN(C)c1ccc(Nc2c3ccc(NC(=O)CCN4CCCC4)cc3nc3cc(NC(=O)CCN4CCCC4)ccc23)cc1",
    "LIMIT SIGN": ">",
    "DATA VALUE": 10000
  },
  {
    "COMPOUND": "C=CC(=O)N1CCN(c2nc(=O)n(-c3c(C)ccnc3C(C)C)c3nc(-c4c(O)cccc4F)c(F)cc23)C(C)C1 (stereo not given) + Cc1[nH]c2ccc(F)cc2c1-c1nc2c3cccnc3c3ncccc3c2[nH]1",
    "LIMIT SIGN": ">",
    "DATA VALUE": 10000
  }
]
